Measured values drawn from patent US10858367B2 for this set.

Molecular target: LRRK2 Ser935 phosphorylation in SH-SY5Y cells over-expressing recombinant full length LRRK2 (Homo sapiens, UniProt Q5S007)
Construct: A BacMam virus expressing full length recombinant LRRK2 was purchased from Invitrogen; host or cells: SH-SY5Y human neuroblastoma cells transduced with BacMam LRRK2 virus
Sequence (Q5S007 whole entry): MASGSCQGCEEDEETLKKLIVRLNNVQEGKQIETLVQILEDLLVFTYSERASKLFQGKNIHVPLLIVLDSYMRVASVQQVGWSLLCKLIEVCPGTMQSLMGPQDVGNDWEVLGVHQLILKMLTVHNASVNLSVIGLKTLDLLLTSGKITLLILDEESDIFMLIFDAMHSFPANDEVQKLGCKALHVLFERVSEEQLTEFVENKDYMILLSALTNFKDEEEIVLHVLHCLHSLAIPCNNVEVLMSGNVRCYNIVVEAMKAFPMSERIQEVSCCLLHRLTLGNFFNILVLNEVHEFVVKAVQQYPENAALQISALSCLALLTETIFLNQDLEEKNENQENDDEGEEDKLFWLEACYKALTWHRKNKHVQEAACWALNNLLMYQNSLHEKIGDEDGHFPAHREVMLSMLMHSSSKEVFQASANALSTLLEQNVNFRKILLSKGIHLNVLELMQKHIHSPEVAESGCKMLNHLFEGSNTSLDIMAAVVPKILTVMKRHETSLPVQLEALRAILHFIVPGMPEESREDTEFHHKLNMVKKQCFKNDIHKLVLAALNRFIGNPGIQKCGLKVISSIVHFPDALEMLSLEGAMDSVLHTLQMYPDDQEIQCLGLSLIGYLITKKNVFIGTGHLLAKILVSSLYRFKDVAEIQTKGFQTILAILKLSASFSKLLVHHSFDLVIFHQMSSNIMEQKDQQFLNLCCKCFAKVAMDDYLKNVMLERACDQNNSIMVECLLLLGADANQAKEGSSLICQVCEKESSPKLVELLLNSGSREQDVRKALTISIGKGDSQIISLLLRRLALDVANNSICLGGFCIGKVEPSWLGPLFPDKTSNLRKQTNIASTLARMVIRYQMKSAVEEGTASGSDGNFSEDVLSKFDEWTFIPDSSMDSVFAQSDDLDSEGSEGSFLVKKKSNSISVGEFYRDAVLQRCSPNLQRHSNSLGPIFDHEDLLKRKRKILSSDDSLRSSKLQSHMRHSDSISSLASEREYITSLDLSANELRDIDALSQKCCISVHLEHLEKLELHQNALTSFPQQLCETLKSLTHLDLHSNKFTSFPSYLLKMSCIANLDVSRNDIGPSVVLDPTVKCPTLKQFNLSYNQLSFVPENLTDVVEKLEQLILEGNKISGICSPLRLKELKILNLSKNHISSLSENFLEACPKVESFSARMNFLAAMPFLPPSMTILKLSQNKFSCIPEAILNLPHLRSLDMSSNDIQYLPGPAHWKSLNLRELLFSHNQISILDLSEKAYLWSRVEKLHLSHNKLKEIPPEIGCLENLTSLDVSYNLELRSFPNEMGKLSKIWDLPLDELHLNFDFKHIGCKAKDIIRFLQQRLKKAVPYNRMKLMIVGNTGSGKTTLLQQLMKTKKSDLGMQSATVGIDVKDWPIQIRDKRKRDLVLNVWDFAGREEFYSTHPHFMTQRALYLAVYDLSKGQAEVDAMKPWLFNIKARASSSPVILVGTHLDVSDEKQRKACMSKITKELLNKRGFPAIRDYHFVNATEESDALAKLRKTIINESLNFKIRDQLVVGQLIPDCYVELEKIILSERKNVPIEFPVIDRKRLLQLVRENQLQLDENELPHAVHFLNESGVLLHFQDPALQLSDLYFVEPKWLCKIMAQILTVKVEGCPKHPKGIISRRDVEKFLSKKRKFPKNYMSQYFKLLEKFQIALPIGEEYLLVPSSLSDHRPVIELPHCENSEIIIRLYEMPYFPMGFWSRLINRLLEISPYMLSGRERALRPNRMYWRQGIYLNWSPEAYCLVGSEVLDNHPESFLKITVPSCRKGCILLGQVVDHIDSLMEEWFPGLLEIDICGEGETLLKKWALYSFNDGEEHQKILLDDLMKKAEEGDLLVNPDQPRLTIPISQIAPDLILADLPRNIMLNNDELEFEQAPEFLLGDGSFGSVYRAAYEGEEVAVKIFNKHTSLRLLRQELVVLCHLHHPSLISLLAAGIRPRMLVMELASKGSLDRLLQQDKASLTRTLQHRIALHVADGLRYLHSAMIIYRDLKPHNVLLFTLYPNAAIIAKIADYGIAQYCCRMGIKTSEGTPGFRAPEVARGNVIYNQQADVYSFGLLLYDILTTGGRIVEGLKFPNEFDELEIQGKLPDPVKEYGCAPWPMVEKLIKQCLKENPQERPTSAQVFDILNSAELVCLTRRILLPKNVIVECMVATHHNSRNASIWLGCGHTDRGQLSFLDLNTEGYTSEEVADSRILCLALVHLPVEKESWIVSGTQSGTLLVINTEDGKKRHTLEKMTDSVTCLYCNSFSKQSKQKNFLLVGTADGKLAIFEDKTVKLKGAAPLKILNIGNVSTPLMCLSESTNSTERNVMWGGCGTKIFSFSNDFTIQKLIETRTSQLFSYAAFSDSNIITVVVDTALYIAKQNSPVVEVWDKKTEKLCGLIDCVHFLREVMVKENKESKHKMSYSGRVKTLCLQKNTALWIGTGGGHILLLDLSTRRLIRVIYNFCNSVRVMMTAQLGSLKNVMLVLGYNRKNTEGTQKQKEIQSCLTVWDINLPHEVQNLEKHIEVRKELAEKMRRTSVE
Experiment: Recombinant cellular LRRK2 AlphaScreen assay
Type: cell-based
Conditions: human neuroblastoma SH-SY5Y cells, BacMam full length LRRK2, 60 minutes with compound, read-out: pIC50 in the recombinant cellular LRRK2 AlphaScreen assay (converted)
recorded endpoint: IC50

COc1nc(N2C[C@@H]3C[C@H]2CO3)cc(-n2ncc3cc(C)c(C4CCN(C5COC5)CC4)cc32)n1 [Example E2]: ≤ 1000 nM

Record Cc1nc(N2CC3CC(C2)C3C(=O)O)cc(-n2ncc3cc(C)c([C@H]4CC[C@@](C)(O)CC4)cc32)n1 (single isomer, unassigned) [Example E77] , field IC50: ≤ 1000 nM

Summary for this molecule, Cc1nc(N2CC3CC2CO3)cc(-n2ncc3cc(C)c(C4CCN(CCO)CC4F)cc32)n1 (single isomer, unassigned) [Example E23] : IC50 is ≤ 1000 nM

Reported IC50 ( Cc1nc(N2C[C@H]3C[C@@H]2CO3)cc(-n2ncc3cc(C)c(C4CCN(C(=O)CO)CC4)cc32)n1 [Example E53] ) = ≤ 1000 nM

Cc1nc(N2CC3CC2CO3)cc(-n2ncc3cc(C)c(C4CCN(C5COC5)CC4O)cc32)n1 (single isomer, unassigned) [Example E141] yielded IC50 of ≤ 1000 nM

Lab note: Cc1nc(N2C3CCC2COC3)cc(-n2ncc3cc(C)c(C4CCN(C5COC5)CC4)cc32)n1 [Example E45] gave IC50 of ≤ 1000 nM

###

Reported IC50 values for the following compounds.
Target: LRRK2 Ser935 phosphorylation in SH-SY5Y cells over-expressing recombinant full length LRRK2 (Homo sapiens, UniProt Q5S007)
Construct: A BacMam virus expressing full length recombinant LRRK2 was purchased from Invitrogen; host or cells: SH-SY5Y human neuroblastoma cells transduced with BacMam LRRK2 virus
Experiment: Recombinant cellular LRRK2 AlphaScreen assay
Format: cell-based
Details: human neuroblastoma SH-SY5Y cells, BacMam full length LRRK2, 60 minutes with compound, read-out: pIC50 in the recombinant cellular LRRK2 AlphaScreen assay (converted)

Cc1nc(N2C[C@@H]3C[C@H]2CN3C2COC2)cc(-n2ncc3cc(C)c([C@H]4CC[C@](C)(O)CC4)cc32)n1: 1860 nM

Please fill in: IC50 reported for Cc1nc(N2CC3CC2CO3)cc(-n2ncc3cc(C)c([C@H]4CC[C@@](C)(O)CC4)cc32)n1 (single isomer, unassigned) = ≤ 1000 nM

// recorded IC50 for Cc1nc(N2C3COCC2COC3)cc(-n2ncc3cc(C)c(C4CCN(C5COC5)CC4)cc32)n1 : ≤ 1000 nM

###

Target: LRRK2 Ser935 phosphorylation in SH-SY5Y cells over-expressing recombinant full length LRRK2 (Homo sapiens)
Construct: A BacMam virus expressing full length recombinant LRRK2 was purchased from Invitrogen; host or cells: SH-SY5Y human neuroblastoma cells transduced with BacMam LRRK2 virus
Assay: Recombinant cellular LRRK2 AlphaScreen assay
Assay type: cell-based
Conditions: human neuroblastoma SH-SY5Y cells, BacMam full length LRRK2, 60 minutes with compound, read-out: pIC50 in the recombinant cellular LRRK2 AlphaScreen assay (converted)
recorded endpoint: IC50

Cc1nc(N2C[C@@H]3C[C@H]2CO3)cc(-n2ncc3cc(C)c(C4CCN(CCO)CC4)cc32)n1: ≤ 1000 nM
COc1nc(N2CC3CC2CC3C(=O)O)cc(-n2ncc3cc(Cl)c(O[C@@H]4CCOC4)cc32)n1 (single isomer, unassigned): ≤ 1000 nM

Consider Cc1nc(N2CC3CC(C2)C3C(=O)O)cc(-n2ncc3cc(C)c(C4CCC(C)(O)CC4)cc32)n1 (single isomer, unassigned) . Its measured IC50 is ≤ 10 nM

###

Biological target: LRRK2 Ser935 phosphorylation in SH-SY5Y cells over-expressing recombinant full length LRRK2 (Homo sapiens)
Construct: A BacMam virus expressing full length recombinant LRRK2 was purchased from Invitrogen; host or cells: SH-SY5Y human neuroblastoma cells transduced with BacMam LRRK2 virus
Assay: Recombinant cellular LRRK2 AlphaScreen assay
Assay type: cell-based
Settings: human neuroblastoma SH-SY5Y cells, BacMam full length LRRK2, 60 minutes with compound, read-out: pIC50 in the recombinant cellular LRRK2 AlphaScreen assay (converted)
recorded endpoint: IC50

# count of solved cases: 2
COc1nc(N2C[C@H]3C[C@@H]2CO3)cc(-n2ncc3cc(C)c(C4CCN(CCO)CC4)cc32)n1 [Example E27]: ≤ 1 µM
[2H]C1(N2CCC(c3cc4c(cnn4-c4cc(N5C[C@@H]6C[C@H]5CO6)nc(OC)n4)cc3C)CC2)COC1 [Example E57]: ≤ 1 µM

Entry Cc1nc(N2CC3CC2CC3C(=O)O)cc(-n2ncc3cc(C)c(C4CCOCC4)cc32)n1 (single isomer, unassigned) [Example E82] , IC50 reported as ≤ 1 µM
